# target: Nuclear receptor ROR-alpha (Homo sapiens)
# Sequence (P35398 whole entry): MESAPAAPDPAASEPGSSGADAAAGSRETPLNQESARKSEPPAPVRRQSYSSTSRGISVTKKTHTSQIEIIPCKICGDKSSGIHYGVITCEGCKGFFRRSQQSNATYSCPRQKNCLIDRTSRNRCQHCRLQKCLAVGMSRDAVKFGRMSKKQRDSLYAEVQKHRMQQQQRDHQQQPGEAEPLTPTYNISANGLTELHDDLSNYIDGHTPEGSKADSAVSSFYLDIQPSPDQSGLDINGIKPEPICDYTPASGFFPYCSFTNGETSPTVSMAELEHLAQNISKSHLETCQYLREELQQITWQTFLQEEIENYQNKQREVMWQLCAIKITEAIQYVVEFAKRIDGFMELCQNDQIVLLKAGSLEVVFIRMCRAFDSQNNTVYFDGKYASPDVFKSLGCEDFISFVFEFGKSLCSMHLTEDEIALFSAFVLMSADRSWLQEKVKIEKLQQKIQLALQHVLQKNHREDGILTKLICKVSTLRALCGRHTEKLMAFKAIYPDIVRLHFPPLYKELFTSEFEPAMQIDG
# procedure-text: Inverse agonist activity at human RORalpha expressed in human Jurkat cells assessed as inhibition of transcriptional activity after 10 mins by human IL-17 ROR response element driven-bright-glo luciferase reporter gene assay
measured-quantity: IC50

Q) Need IC50, item COc1ccc2c(n1)CCN(C(=O)[C@H]1C[C@@H](CC(=O)O)C1)[C@H]2C(=O)Nc1cc(F)c2c(c1)CCC2(C)C
A) ≥ 30 µM

----------
# target: Nuclear receptor ROR-beta (Homo sapiens, UniProt Q92753)
# Sequence (Q92753 whole entry): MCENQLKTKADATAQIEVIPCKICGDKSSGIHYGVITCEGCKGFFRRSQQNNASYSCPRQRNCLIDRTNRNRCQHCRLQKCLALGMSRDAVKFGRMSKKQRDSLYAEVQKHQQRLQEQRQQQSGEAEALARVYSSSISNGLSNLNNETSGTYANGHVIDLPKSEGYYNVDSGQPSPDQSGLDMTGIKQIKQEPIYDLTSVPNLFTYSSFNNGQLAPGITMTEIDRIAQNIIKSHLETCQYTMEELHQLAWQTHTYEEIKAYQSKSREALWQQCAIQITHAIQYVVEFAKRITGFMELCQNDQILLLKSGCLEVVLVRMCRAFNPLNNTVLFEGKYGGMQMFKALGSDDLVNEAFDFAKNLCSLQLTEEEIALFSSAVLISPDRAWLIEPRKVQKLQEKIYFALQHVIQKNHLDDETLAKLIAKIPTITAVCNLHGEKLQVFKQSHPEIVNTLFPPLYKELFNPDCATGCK
# procedure-text: Inverse agonist activity at human RORbeta expressed in human Jurkat cells assessed as inhibition of transcriptional activity after 10 mins by human IL-17 ROR response element driven-bright-glo luciferase reporter gene assay
measured-quantity: IC50

Q) Need IC50, item COc1ccc2c(n1)CCN(C(=O)[C@H]1C[C@@H](CC(=O)O)C1)[C@H]2C(=O)Nc1cc(F)c2c(c1)CCC2(C)C
A) ≥ 30 µM
